Data credit: PubChem BioAssay (NCI)

System: 786-0 renal
Experiment: NCI tumour cell line growth inhibition, 48 h

Molecule | Measurement target | GI50
CCN(CC)C(=O)CCCCCn1c2ccccc2c2c3c(c4c5ccccc5[nH]c4c21)C(=O)N(O)C3=O | 786-0 renal | 2.12 µM
CCc1ccc(C2=NN(c3ccc(S(C)(=O)=O)cc3)C(=O)CC2)cc1 | 786-0 renal | 4.39 µM
Oc1ccc(-c2[nH]c3ccccc3c2-c2nc3ccccc3o2)cc1 | 786-0 renal | 4.4 µM
CN(c1ccc(NC(=O)NCCN2CCOCC2)cc1)c1ccnc(Nc2ccc(CS(C)(=O)=O)cc2)n1 | 786-0 renal | > 25 µM
COC(=O)C1=Nc2ccc(F)cc2/C1=C/c1sc(=S)[nH]c1O | 786-0 renal | 0.122 µM
O=C(Nc1ccc(Br)cc1)Nc1cccc(Br)c1 | 786-0 renal | 34.5 µM
Nc1ccn([C@@H]2S[C@H](CO)[C@@H](O)[C@@H]2F)c(=O)n1 | 786-0 renal | 0.109 µM
Cc1ccc(O)cc1Nc1ccnc2cc(-c3ccccn3)ccc12 | 786-0 renal | 2.98 µM
Cc1ccccc1CNc1c2ccccc2nc2ccccc12 | 786-0 renal | 2.54 µM
Cc1nn2c(-c3nc4cc(Cl)c(Cl)cc4[nH]3)c(-c3ccc(F)cc3)nc2s1 | 786-0 renal | 1.75 µM
Cc1n(Cc2ccc3ccccc3n2)cc[n+]1Cc1ccc2ccccc2c1 | 786-0 renal | 4.36 µM
Cc1cn2c(/C=C3/C(=O)Nc4ccc(C(=O)O)cc43)c(C)nc2s1 | 786-0 renal | > 100 µM
C=C(C)[C@@H]1CC[C@]2(C(=O)n3ccnc3)CC[C@]3(C)[C@H](CC[C@@H]4[C@@]5(C)CCCNC(C)(C)[C@@H]5CC[C@]43C)[C@@H]12 | 786-0 renal | 1.45 µM
CCN(CC)CCCNc1c2ccc(Cl)cc2nc2ccc(OC)cc12 | 786-0 renal | 0.0449 µM
CCN(CC)CCS(=O)(=O)CCNc1ccnc2cc(Cl)ccc12 | 786-0 renal | 2.84 µM
c1ccc2c(c1)[O][Sn][O]2 | 786-0 renal | 23.6 µg/mL

====

Reported TGI values for a set of compounds
System: M14 melanoma
Experiment: NCI tumour cell line growth inhibition, 48 h

Compound | TGI
Cn1c(CC(O)c2nc3ccccc3n2C)nc2ccccc21 (stereo unspecified) | > 49.8 µM
O=C(c1ccccc1)c1ccc2nc3n(c2c1)C(c1c(Cl)cccc1Cl)SC3 (stereo unspecified) | 16.9 µM
COc1cccc(-c2[nH]c3cc4c(cc3c(=O)c2C(=O)O)OCO4)c1 | > 100 µM
Cn1c(SCc2c[nH]c3ccccc23)nnc1-c1ccc(Cl)cc1Cl | 38.1 µM
COCCOCCOCCC(=O)NC1CC2CCC1(C)C2(C)C (stereo unspecified) | > 100 µM
COc1cccc2c1[C@H]1OC(=O)NC1CCCCC2 (stereo partly specified) | > 100 µM
CC(C)=NNc1ncnc2nc[nH]c12 | > 100 µM
CCOc1cc(/C=C/C(=O)CC(=O)/C=C/c2ccc(OC(=O)CNCCN(CC)CC)c(OCC)c2)ccc1OC(=O)CNCCN(CC)CC | 4.23 µM
COC(=O)c1ccccc1/C=C1\Cc2ccc3ccccc3c2C1C (stereo unspecified) | > 100 µM
CSc1nc(C)cc(=O)n1C1OC(COC(C)=O)C(OC(C)=O)C(OC(C)=O)C1OC(C)=O (stereo unspecified) | > 100 µM
COc1cccc(/C=N/[N-]C(N)=O)c1[O-].[OH3+].[Pd+2] | > 100 µM
